The origin of these recorded values is PubChem BioAssay AID463173.

# System: Wild type
# assay_protocol: S. aureus survival, RN4220 and DeltatarO strains – OD600, teichoic acid synthesis inhibitors, primary screen (AID 463173)
# stated_conditions: S. aureus RN4220 wild type/DeltatarO growth, OD600, 18 h, hits give low values, screened at 18.75 µg/mL (by protocol)
Among all 52,000 compounds or so, about 1,700 (3.3%) were called active. Many of the other results were omitted from the sample, so actives are more common in it than they were.
// thresholds for survival classes: interval 1: < 60%; interval 2: ≥ 60% and < 80%; interval 3: ≥ 80%

Use the examples below as a reference point.
{"molecule": "Cc1cccc(OC(C)C(=O)Nc2nonc2-c2ccc(Br)cc2)c1C (stereo not given)", "label": "interval 3"}
{"molecule": "CCN(c1cccc(C)c1)S(=O)(=O)c1cc(Br)cc2c1N(C(C)=O)C(C)C2 (stereo not given)", "label": "interval 2"}

Which survival category applies to "CCc1ccc2oc(C(=O)NCCc3ccc(OC)c(OC)c3)cc(=O)c2c1" here?
interval 3

Would you kindly repeat that for "CCOc1ccc(OCC)c(S(=O)(=O)N2CCC(C)CC2)c1" ?
interval 3

----------
# Tested on: Wild type
# assay_protocol: S. aureus survival, RN4220 and DeltatarO strains – OD600, teichoic acid synthesis inhibitors, primary screen (AID 463173)
# stated_conditions: S. aureus RN4220 wild type/DeltatarO growth, OD600, 18 h, hits give low values, screened at 18.75 µg/mL (by protocol)
The whole screen tested about 52,000 compounds, of which about 1,700 (3.3%) were called active. What follows is part of a selection rich in actives, with near analogues and random picks from the rest.
recorded_endpoint: survival (%)
Answers are plain numbers, in %.

Would you mind listing survival for each of the following compounds?
1. CC1(C)C(=O)NC(=O)N1CN1C(=O)NC(=O)C1(C)C
2. CC(=O)Nc1ccc(S(=O)(=O)NCCc2cn3ccsc3n2)cc1
3. O=C1NCN(c2ccccc2)C12CCN(c1nnnn1-c1ccccc1)CC2
4. Cc1ccc(CNC(=O)CN2N=C(c3ccc(C)cc3)CCC2=O)cc1
5. COC(=O)c1ccc(NC(=O)CCn2cccn2)cc1
6. Cc1ccc(CNC(=O)CSCc2nc(-c3cccc(C)c3)oc2C)cc1
7. Cc1ccc(Nc2c(-c3ccc(C)cc3)nc3ccc(C)cn23)cc1

[111, 72, 102, 80, 88, -1, 121]

Would you mind listing survival for each of the following compounds?
1. COCCNc1c(-c2ccc(N)cc2)nc2ccc(C)cn12
2. Cc1ccc2nc(-c3ccc(F)cc3)c(NC(C)(C)CC(C)(C)C)n2c1

101
14

Would you mind listing survival for each of the following compounds?
1. CC(=O)c1sc(NC(=O)c2c(-c3ccccc3)c(-c3ccccc3)nn(C)c2=O)nc1C
2. COc1ccccc1-c1nn(CCC(=O)Nc2ccccc2)c2nc(C)cc(C)c12

1: 54; 2: 86

----------
# Test system: Wild type
# assay_protocol: S. aureus survival, RN4220 and DeltatarO strains – OD600, teichoic acid synthesis inhibitors, primary screen (AID 463173)
# stated_conditions: S. aureus RN4220 wild type/DeltatarO growth, OD600, 18 h, hits give low values, screened at 18.75 µg/mL (by protocol)
About 1,700 (3.3%) of roughly 52,000 compounds were called active. Only a selection was taken, and actives are over-represented in it overall.
Note to self: survival under 60% means yes (1), ties and anything higher get no (0).

Use the examples below as a reference point.
{"compound": "CCn1c(CN2CCCCC2)nc2cc(NC(=O)COc3ccccc3C(C)(C)C)ccc21", "label": "no (0)"}
{"compound": "Cc1ccc(S(=O)(=O)c2c(O)cc(C)c(NS(=O)(=O)c3ccc(Br)cc3)c2C)cc1", "label": "yes (1)"}
{"compound": "Cc1ccc(S(=O)(=O)c2c(O)cc(C)c(NS(=O)(=O)c3ccc(Cl)cc3)c2C)cc1", "label": "no (0)"}
{"compound": "Cc1ccc(CSCC(=O)N2CCN(c3ccccc3F)CC2)cc1", "label": "yes (1)"}

Would you kindly verify if survival of "Cc1ccc2occ(-c3cc(-c4ccc(F)cc4)nc4c3COc3ccc(F)cc3-4)c(=O)c2c1" is strictly less than 60%?
no (0)

Would you kindly repeat that for O=C(NCc1ccc(Cl)cc1)C(=O)NCC(c1ccco1)S(=O)(=O)c1cccs1 (stereo not given) ?
no (0)

Would you kindly repeat that for CC(=O)c1ccc(NC(=O)CC2Nc3cccc4cccc(c34)NC2=O)cc1 (stereo not given) ?
no (0)

Would you kindly repeat that for "Cc1ccccc1NC(=O)CSc1ncc2c(n1)-c1ccccc1N(C)S2(=O)=O" ?
no (0)

Would you kindly repeat that for CCOC(=O)c1ccc(NC(=O)CC2Nc3ccccc3NC2=O)cc1 (stereo not given) ?
no (0)

Would you kindly repeat that for "CCCCc1ccc(Nc2ncnc3c2cnn3-c2ccc(C)cc2)cc1" ?
yes (1)

----------
# System: Wild type
# assay_protocol: S. aureus survival, RN4220 and DeltatarO strains – OD600, teichoic acid synthesis inhibitors, primary screen (AID 463173)
# stated_conditions: S. aureus RN4220 wild type/DeltatarO growth, OD600, 18 h, hits give low values, screened at 18.75 µg/mL (by protocol)
The whole screen tested about 52,000 compounds, of which about 1,700 (3.3%) were called active. Many of the other results were omitted from the sample, so actives are more common in it than they were.
Note to self: survival under 70% means 1, ties and anything higher get -1.

Use the examples below as a reference point.
{"molecule": "COc1ccc(-c2cc(C(=O)Oc3cccc(C)c3)c3ccccc3n2)cc1", "label": 1}
{"molecule": "CCCCCC(=O)N1c2ccccc2C(C)(c2ccccc2)CC1(C)C (stereo unspecified)", "label": 1}
{"molecule": "COc1ccc(-c2cc(C(=O)Oc3ccccc3)c3cc(C)ccc3n2)cc1", "label": 1}

Would you kindly verify if survival of CCS(=O)(=O)N1CC(=O)N(c2ccccc2C)C(C)(C(=O)NC2CCCCC2)C1 (stereo unspecified) is strictly less than 70%?
-1

Would you kindly repeat that for Cc1cccc(-c2nc(SCC(=O)NCC3CCCO3)c3c(=O)n(C)c(=O)n(C)c3n2)c1 (stereo unspecified) ?
-1

----------
# Tested on: Wild type
# assay_protocol: S. aureus survival, RN4220 and DeltatarO strains – OD600, teichoic acid synthesis inhibitors, primary screen (AID 463173)
# stated_conditions: S. aureus RN4220 wild type/DeltatarO growth, OD600, 18 h, screened at 18.75 µg/mL (by protocol)
Screen size: about 52,000 compounds; about 1,700 (3.3%) were called active. Rule as the data show it: active = survival mostly below about 52% (no sharp cut-off); inactive = mostly above about 56%. This excerpt belongs to a sample that is enriched for actives.
Parameter call: string, one of class 1 for active, class 0 for inactive

Use the examples below as a reference point.
{"compound": "Cc1ccc(NCC(=O)N=Nc2c(O)[nH]c3ccccc23)cc1", "tested_system": "Wild type", "label": "class 0"}
{"compound": "C=Cc1ccc(Cn2c(C(=O)O)c(CNCc3cc(Br)ccc3OC)c3ccc(C)cc32)cc1", "tested_system": "Wild type", "label": "class 0"}
{"compound": "CCCCS(=O)(=O)c1oc(-c2ccc(F)cc2)nc1S(=O)(=O)c1ccccc1", "tested_system": "Wild type", "label": "class 1"}

We next turn to a different compound, shown below.
Hi, do you know how "Cc1ccc(-c2nc(S(=O)(=O)c3ccc(F)cc3)c(N3CCN(c4ccccc4)CC3)o2)cc1" came out in this test?
class 0

----------
# Tested on: Wild type
# assay_protocol: S. aureus survival, RN4220 and DeltatarO strains – OD600, teichoic acid synthesis inhibitors, primary screen (AID 463173)
# stated_conditions: S. aureus RN4220 wild type/DeltatarO growth, OD600, 18 h, hits give low values, screened at 18.75 µg/mL (by protocol)
Hit rate of the full screen: of about 52,000 compounds, about 1,700 (3.3%) were called active. The sample as a whole holds a higher share of actives than the screen did.
Note to self: survival under 60% means 1.0, ties and anything higher get 0.0.

Use the examples below as a reference point.
{"compound": "Cc1ccc(C(=O)CSc2nc3cc(C(=O)NC4CCCC4)ccc3c(=O)n2CC2CCCO2)c(C)c1 (stereo not given)", "label": 0.0}
{"compound": "CCn1c(Cc2ccccc2)nnc1SCC(=O)N(C)C1CCCCC1", "label": 0.0}
{"compound": "O=C(CSc1nc2cc(C(=O)NC3CCCC3)ccc2c(=O)n1CC1CCCO1)c1cccc(Cl)c1 (stereo not given)", "label": 1.0}
{"compound": "CCOc1ccc(C(=O)CSc2nc3cc(C(=O)NC4CCCC4)ccc3c(=O)n2CC2CCCO2)cc1 (stereo not given)", "label": 1.0}

We next turn to a different compound, shown below.
Would you kindly verify if survival of "O=C(CSc1nc2c([nH]c3ccccc32)c(=O)n1-c1ccccc1)NCc1ccc(F)cc1" is strictly less than 60%?
0.0

----------
# Tested on: Wild type
# assay_protocol: S. aureus survival, RN4220 and DeltatarO strains – OD600, teichoic acid synthesis inhibitors, primary screen (AID 463173)
# stated_conditions: S. aureus RN4220 wild type/DeltatarO growth, OD600, 18 h, hits give low values, screened at 18.75 µg/mL (by protocol)
In all, about 52,000 compounds went through this assay and about 1,700 (3.3%) were called active. This excerpt belongs to a sample that is enriched for actives.
Kindly supply the reported survival values for the records listed here.
Numbers only, in %.

{"molecule": "CCOC(=O)c1cc(S(=O)(=O)Nc2ccc(OC(F)(F)F)cc2)[nH]n1", "data_value": 87}

Would you mind listing survival for each of the following molecules?
1. CCOC(=O)c1cnc2nc(NCc3cccc(Br)c3)[nH]n2c1=O
2. Fc1ccc(-c2nc(Nc3cccc(C(F)(F)F)c3)nc3c2COc2ccccc2-3)cc1
3. COc1cccc(N2CCN(C(=O)c3cnc4c(-c5ccccc5)c(C)nn4c3C)CC2)c1

[98, 56, 76]

Would you mind listing survival for each of the following molecules?
1. Cc1ccc(C)c(N2CCN(C(=O)Cn3ncc4c(=O)oc5ccccc5c43)CC2)c1
2. CCc1ccc(NC(=O)N2CCN(C(=O)c3nsc4ccccc34)CC2)cc1
3. CCOc1ccc(NC2SC(=O)N(Cc3ccccc3)C2=O)cc1 (stereo unspecified)

1. 71
2. 76
3. 72

Would you mind listing survival for each of the following molecules?
1. Cc1ccc(C)c(NC(=O)N2CCN(C(=O)c3nsc4ccccc34)CC2)c1
2. O=C(NCc1cccc(Cl)c1)c1cnc(N2CCCCC2)c2ccccc12

1: 69; 2: 89

Would you mind listing survival for each of the following molecules?
1. CCc1ccc(C(=O)c2cn(CC(=O)Nc3ccc(OC)c(Cl)c3)c3nc(C)ccc3c2=O)cc1
2. Cc1ccc(Nc2nc3nonc3nc2Nc2cccc(C(F)(F)F)c2)cc1Cl
3. Cc1nn2c(C)c(C(=O)N3CCN(c4ccc(Cl)cc4)CC3)cnc2c1-c1ccc(F)cc1
4. CCOc1cccc(CC(=O)N2CCc3c([nH]c4ccccc34)C2c2ccccc2)c1OCC (stereo unspecified)

119
0
72
81
